- assay-target: KiSS-1 receptor (Homo sapiens, UniProt Q969F8)
- Sequence (Q969F8 whole entry): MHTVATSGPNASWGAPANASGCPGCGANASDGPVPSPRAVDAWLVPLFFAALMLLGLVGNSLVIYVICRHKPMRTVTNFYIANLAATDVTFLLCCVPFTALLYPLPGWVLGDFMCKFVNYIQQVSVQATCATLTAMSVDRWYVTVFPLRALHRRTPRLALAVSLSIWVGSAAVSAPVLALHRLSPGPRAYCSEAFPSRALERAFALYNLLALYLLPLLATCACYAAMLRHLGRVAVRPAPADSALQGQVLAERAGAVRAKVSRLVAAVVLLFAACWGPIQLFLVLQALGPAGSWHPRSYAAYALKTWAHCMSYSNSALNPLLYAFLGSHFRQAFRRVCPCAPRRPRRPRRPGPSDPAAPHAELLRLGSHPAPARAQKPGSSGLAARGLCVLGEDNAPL
- test-method-notes: Agonist activity at human KISS1R expressed in CHO cells assessed as increase in calcium mobilization measured at 2 secs interval for 2 mins by fluo-4 NW dye based FLIPR assay
Square brackets hold non-standard residues; d marks the D form. Peptide text beside a SMILES is read from it. * marks the point of attachment. Propanoyl(3-indol-3-yl) = O=C(CCc1c[nH]c2ccccc12)*; Arg(Me) = CNC(=N)NCCC[C@H](N)C(=O)O; azaGly = NNC(=O)O

- compound: "CNC(=N)NCCC[C@H](NC(=O)[C@H](CC(C)C)NC(=O)NNC(=O)[C@H](Cc1ccccc1)NC(=O)C1CC1)C(=O)N[C@@H](Cc1c[nH]c2ccccc12)C(N)=O"
  output-unit: "nM"
  EC50: 0.028
- compound: "CNC(=N)NCCC[C@H](NC(=O)[C@H](CC(C)C)NC(=O)NNC(=O)[C@H](Cc1ccccc1)NC(=O)[C@H](CO)NC(=O)CCc1c[nH]c2ccccc12)C(=O)N[C@@H](Cc1ccccc1)C(N)=O ({Propanoyl(3-indol-3-yl)}-SF[azaGly]L[Arg(Me)]F-NH2)"
  output-unit: "nM"
  EC50: 8.2
- compound: "CNC(=N)NCCC[C@H](NC(=O)[C@H](CC(C)C)NC(=O)NNC(=O)[C@H](Cc1ccccc1)NC(=O)[C@H](CO)NC(=O)[C@H](CC(N)=O)NC(=O)[C@@H](N)Cc1c[nH]c2ccccc12)C(=O)N[C@@H](Cc1ccccc1)C(N)=O (H-WNSF[azaGly]L[Arg(Me)]F-NH2)"
  output-unit: "nM"
  EC50: 7.7
- compound: "CNC(=N)NCCC[C@H](NC(=O)[C@H](CC(C)C)NC(=O)NNC(=O)[C@@H](N)Cc1ccccc1)C(=O)N[C@@H](Cc1ccccc1)C(N)=O (H-F[azaGly]L[Arg(Me)]F-NH2)"
  output-unit: "nM"
  EC50: 130

----------
- test-method-notes: Stability in Sprague-Dawley rat serum assessed as parent compound remaining at 10 ug/ml measured after 120 mins by LC-MS/MS analysis
- Format: ADME, cell-free
- condition-parameters: read-out: Stability
Square brackets hold non-standard residues; d marks the D form. Peptide text beside a SMILES is read from it. Arg(Me) = CNC(=N)NCCC[C@H](N)C(=O)O; d4Pal = N[C@H](Cc1ccncc1)C(=O)O; azaGly = NNC(=O)O

- molecule: "CC(C)C[C@H](NC(=O)CNC(=O)[C@H](Cc1ccccc1)NC(=O)[C@H](CO)NC(=O)[C@H](CC(N)=O)NC(=O)[C@H](Cc1c[nH]c2ccccc12)NC(=O)[C@H](CC(N)=O)NC(=O)[C@@H](N)Cc1ccc(O)cc1)C(=O)N[C@@H](CCCNC(=N)N)C(=O)N[C@@H](Cc1ccccc1)C(N)=O"
  relational-operator: "<"
  remaining at 2 h, 10 ug/ml [%]: 0.5
- molecule: "CNC(=N)NCCC[C@H](NC(=O)[C@H](CC(C)C)NC(=O)NNC(=O)[C@H](Cc1ccccc1)NC(=O)[C@H](CO)NC(=O)[C@H](CC(N)=O)NC(=O)[C@@H](Cc1ccncc1)NC(=O)[C@H](N)Cc1ccc(O)cc1)C(=O)N[C@@H](Cc1ccccc1)C(N)=O [KISS1-305] (H-[dY][d4Pal]NSF[azaGly]L[Arg(Me)]F-NH2)"
  relational-operator: "="
  remaining at 2 h, 10 ug/ml [%]: 70
- molecule: "CNC(=N)NCCC[C@H](NC(=O)[C@H](CC(C)C)NC(=O)NNC(=O)[C@H](Cc1ccccc1)NC(=O)c1ccccc1)C(=O)N[C@@H](Cc1c[nH]c2ccccc12)C(N)=O"
  relational-operator: "="
  remaining at 2 h, 10 ug/ml [%]: 91

----------
- test-method-notes: Retention time of the compound by reverse-phase HPLC method
- Format: physicochemical
Square brackets hold non-standard residues; d marks the D form. Peptide text beside a SMILES is read from it. * marks the point of attachment. Propanoyl(3-indol-3-yl) = O=C(CCc1c[nH]c2ccccc12)*; Propanoyl(3-(4-pyridyl)) = O=C(CCc1ccncc1)*; Arg(Me) = CNC(=N)NCCC[C@H](N)C(=O)O; Hydrocinnamoyl = O=C(CCc1ccccc1)*; Hexanoyl = CCCCCC(=O)*; Bz = O=C(c1ccccc1)*; azaGly = NNC(=O)O

- molecule: "CNC(=N)NCCC[C@H](NC(=O)[C@H](CC(C)C)NC(=O)NNC(=O)[C@H](Cc1ccccc1)NC(=O)[C@H](CO)NC(=O)[C@H](CC(N)=O)NC(=O)CCc1c[nH]c2ccccc12)C(=O)N[C@@H](Cc1ccccc1)C(N)=O ({Propanoyl(3-indol-3-yl)}-NSF[azaGly]L[Arg(Me)]F-NH2)"
  Retention_time [min]: 5.95
- molecule: "CNC(=N)NCCC[C@H](NC(=O)[C@H](CC(C)C)NC(=O)NNC(=O)[C@H](Cc1ccccc1)NC(=O)CCc1c[nH]c2ccccc12)C(=O)N[C@@H](Cc1ccccc1)C(N)=O ({Propanoyl(3-indol-3-yl)}-F[azaGly]L[Arg(Me)]F-NH2)"
  Retention_time [min]: 6.58
- molecule: "CNC(=N)NCCC[C@H](NC(=O)[C@H](CC(C)C)NC(=O)NNC(=O)[C@H](Cc1ccccc1)NC(=O)[C@H](CO)NC(=O)[C@H](CC(N)=O)NC(=O)[C@@H](N)Cc1c[nH]c2ccccc12)C(=O)N[C@@H](Cc1ccccc1)C(N)=O (H-WNSF[azaGly]L[Arg(Me)]F-NH2)"
  Retention_time [min]: 5.03
- molecule: "CCCCCC(=O)N[C@@H](Cc1ccccc1)C(=O)NNC(=O)N[C@@H](CC(C)C)C(=O)N[C@@H](CCCNC(=N)NC)C(=O)N[C@@H](Cc1ccccc1)C(N)=O (Hexanoyl-F[azaGly]L[Arg(Me)]F-NH2)"
  Retention_time [min]: 6.66
- molecule: "CNC(=N)NCCC[C@H](NC(=O)[C@H](CC(C)C)NC(=O)NNC(=O)[C@H](Cc1ccccc1)NC(=O)[C@H](CO)NC(=O)[C@H](CC(N)=O)NC(=O)[C@H](Cc1c[nH]c2ccccc12)NC(C)=O)C(=O)N[C@@H](Cc1ccccc1)C(N)=O (Ac-WNSF[azaGly]L[Arg(Me)]F-NH2)"
  Retention_time [min]: 5.76
- molecule: "CNC(=N)NCCC[C@H](NC(=O)[C@H](CC(C)C)NC(=O)NNC(=O)[C@H](Cc1ccccc1)NC(=O)[C@H](CO)NC(=O)[C@H](CC(N)=O)NC(=O)CCc1ccccc1)C(=O)N[C@@H](Cc1ccccc1)C(N)=O (Hydrocinnamoyl-NSF[azaGly]L[Arg(Me)]F-NH2)"
  Retention_time [min]: 5.9
- molecule: "CNC(=N)NCCC[C@H](NC(=O)[C@H](CC(C)C)NC(=O)NNC(=O)[C@H](Cc1ccccc1)NC(C)=O)C(=O)N[C@@H](Cc1ccccc1)C(N)=O (Ac-F[azaGly]L[Arg(Me)]F-NH2)"
  Retention_time [min]: 5.02
- molecule: "CNC(=N)NCCC[C@H](NC(=O)[C@H](CC(C)C)NC(=O)NNC(=O)[C@H](Cc1ccccc1)NC(=O)C(C)C)C(=O)N[C@@H](Cc1c[nH]c2ccccc12)C(N)=O"
  Retention_time [min]: 5.88
- molecule: "CNC(=N)NCCC[C@H](NC(=O)[C@H](CC(C)C)NC(=O)NNC(=O)[C@H](Cc1ccccc1)NC(=O)c1cccnc1)C(=O)N[C@@H](Cc1c[nH]c2ccccc12)C(N)=O"
  Retention_time [min]: 4.69
- molecule: "CNC(=N)NCCC[C@H](NC(=O)[C@H](CC(C)C)NC(=O)NNC(=O)[C@H](Cc1ccccc1)NC(=O)c1ccccc1)C(=O)N[C@@H](Cc1c[nH]c2ccccc12)C(N)=O"
  Retention_time [min]: 6.29
- molecule: "CCC(=O)N[C@@H](Cc1ccccc1)C(=O)NNC(=O)N[C@@H](CC(C)C)C(=O)N[C@@H](CCCNC(=N)NC)C(=O)N[C@@H](Cc1c[nH]c2ccccc12)C(N)=O"
  Retention_time [min]: 5.52
- molecule: "CNC(=N)NCCC[C@H](NC(=O)[C@H](CC(C)C)NC(=O)NNC(=O)[C@H](Cc1ccccc1)NC(=O)c1ccccn1)C(=O)N[C@@H](Cc1c[nH]c2ccccc12)C(N)=O"
  Retention_time [min]: 6.02
- molecule: "CNC(=N)NCCC[C@H](NC(=O)[C@H](CC(C)C)NC(=O)NNC(=O)[C@H](Cc1ccccc1)NC(=O)C1CCCCC1)C(=O)N[C@@H](Cc1c[nH]c2ccccc12)C(N)=O"
  Retention_time [min]: 6.7
- molecule: "CNC(=N)NCCC[C@H](NC(=O)[C@H](CC(C)C)NC(=O)NNC(=O)[C@H](Cc1ccccc1)NC(=O)c1ccc[nH]1)C(=O)N[C@@H](Cc1c[nH]c2ccccc12)C(N)=O"
  Retention_time [min]: 5.91
- molecule: "CNC(=N)NCCC[C@H](NC(=O)[C@H](CC(C)C)NC(=O)NNC(=O)[C@H](Cc1ccccc1)NC(=O)[C@H](CO)NC(=O)CCc1c[nH]c2ccccc12)C(=O)N[C@@H](Cc1ccccc1)C(N)=O ({Propanoyl(3-indol-3-yl)}-SF[azaGly]L[Arg(Me)]F-NH2)"
  Retention_time [min]: 6.17
- molecule: "CNC(=N)NCCC[C@H](NC(=O)[C@H](CC(C)C)NC(=O)NNC(=O)[C@H](Cc1ccccc1)NC(=O)C1CC1)C(=O)N[C@@H](Cc1c[nH]c2ccccc12)C(N)=O"
  Retention_time [min]: 5.7
- molecule: "CNC(=N)NCCC[C@H](NC(=O)[C@H](CC(C)C)NC(=O)NNC(=O)[C@H](Cc1ccccc1)NC(=O)c1ccccc1)C(=O)N[C@@H](Cc1ccccc1)C(N)=O (Bz-F[azaGly]L[Arg(Me)]F-NH2)"
  Retention_time [min]: 6.21
- molecule: "CNC(=N)NCCC[C@H](NC(=O)[C@H](CC(C)C)NC(=O)NNC(=O)[C@H](Cc1ccccc1)NC(=O)[C@H](CO)NC(=O)[C@H](CC(N)=O)NC(=O)CCc1ccncc1)C(=O)N[C@@H](Cc1ccccc1)C(N)=O ({Propanoyl(3-(4-pyridyl))}-NSF[azaGly]L[Arg(Me)]F-NH2)"
  Retention_time [min]: 4.51
- molecule: "CNC(=N)NCCC[C@H](NC(=O)[C@H](CC(C)C)NC(=O)NNC(=O)[C@@H](N)Cc1ccccc1)C(=O)N[C@@H](Cc1ccccc1)C(N)=O (H-F[azaGly]L[Arg(Me)]F-NH2)"
  Retention_time [min]: 4.29
- molecule: "CNC(=N)NCCC[C@H](NC(=O)[C@H](CC(C)C)NC(=O)NNC(=O)[C@H](Cc1ccccc1)NC(=O)c1ccoc1)C(=O)N[C@@H](Cc1c[nH]c2ccccc12)C(N)=O"
  Retention_time [min]: 5.88
